system: Clone A human colon cancer cells; assay: In vitro growth inhibition of Clone A cells (MTT, 72 hr); assay type: cell-based; conditions: 72 h, read-out: Clone A IC50
Exercise: for every item that follows, state its recorded log10(IC50).
Please note: log10 values; quantity IC50; unit mg/L.

Solved entries (count: 4):
CS(=O)(=O)O.O=C1c2cc([N+](=O)[O-])cc3c2c(cc2ncccc23)C(=O)N1CCCCNCCCN1C(=O)c2cc([N+](=O)[O-])cc3c2c(cc2ncccc23)C1=O: -2.15
CS(=O)(=O)O.O=C1c2cccc3c2c(cc2ccc(C(F)(F)F)cc23)C(=O)N1CCCCNCCCN1C(=O)c2cccc3c2c(cc2ccc(C(F)(F)F)cc23)C1=O: 0.00
CS(=O)(=O)O.O=C1c2cccc3c2c(cc2cccc([N+](=O)[O-])c23)C(=O)N1CCCCNCCCN1C(=O)c2cccc3c2c(cc2cccc([N+](=O)[O-])c23)C1=O: -0.13
CS(=O)(=O)O.CS(=O)(=O)O.Cc1cnc2c(c1)cc1c3c(cc([N+](=O)[O-])cc32)C(=O)N([C@H](C)CNC[C@@H](C)NC[C@@H](C)N2C(=O)c3cc([N+](=O)[O-])cc4c3c(cc3cc(C)cnc34)C2=O)C1=O: -2.00

Find the measured log10(IC50) of CS(=O)(=O)O.CS(=O)(=O)O.O=C1c2cc([N+](=O)[O-])cc3c2c(cc2cccnc23)C(=O)N1CCNCCNCCN1C(=O)c2cc([N+](=O)[O-])cc3c2c(cc2cccnc23)C1=O and report it.
-2.30
